Values compiled from patent US10253007B2.

Tested on: breast cancer cell line MCF-7
TEST DESCRIPTION: IC50 values on breast cancer cell line MCF-7
Type: cell-based
TEST CONDITIONS: Homo sapiens, MCF7, 72 h, read-out: MCF-7(IC50, nM)
Excerpt: From the activity evaluation data of the above-mentioned preliminary screen, it can be seen that the series of taxanes derivatives synthesized in the present invention have activity (although the activity of PCMI-43 is weakened). Afterward, most of the compounds are picked up from these derivatives to examine their IC50 values on breast cancer cell line MCF-7. Paclitaxel is used as the positive control drug. […]
RECORDED METRIC: IC50 (nM)

STRUCTURE STRING	RECORDED METRIC	UNITS LABEL	QUANTITATIVE READOUT
CO[C@H]1C(=O)[C@]2(C)[C@@H](OC(=O)N(C)C)C[C@H]3OC[C@@]3(OC(C)=O)[C@H]2[C@H](OC(=O)c2ccccc2)[C@]2(O)C[C@H](OC(=O)[C@H](O)[C@@H](NC(=O)OC(C)(C)C)c3ccccn3)C(C)=C1C2(C)C	IC50	nM	46.6
COC(=O)O[C@H]1C[C@H]2OC[C@@]2(OC(C)=O)[C@H]2[C@H](OC(=O)c3ccccc3)[C@]3(O)C[C@H](OC(=O)[C@H](O)[C@@H](NC(=O)OC(C)(C)C)c4ccccc4)C(C)=C([C@@H](OC)C(=O)[C@]12C)C3(C)C	IC50	nM	4.97
CCSC(=O)O[C@H]1C[C@H]2OC[C@@]2(OC(C)=O)[C@H]2[C@H](OC(=O)c3ccccc3)[C@]3(O)C[C@H](OC(=O)[C@H](O)[C@@H](NC(=O)N(C)C)c4ccccc4)C(C)=C([C@@H](OC)C(=O)[C@]12C)C3(C)C	IC50	nM	5.49
CO[C@H]1C(=O)[C@]2(C)[C@@H](OC(=O)N(C)C)C[C@H]3OC[C@@]3(OC(C)=O)[C@H]2[C@H](OC(=O)c2ccccc2)[C@]2(O)C[C@H](OC(=O)[C@H](O)[C@@H](NC(=O)OC(C)(C)C)c3ccccc3)C(C)=C1C2(C)C	IC50	nM	9.63

----------
TEST DESCRIPTION: In vivo oral bioavailability assay (pharmacokinetics)
Parameters: species or system S.D. rats
TEST CONDITIONS: male, S.D., rat, plasma, oral, 60 mg/kg, oral 60 mg/kg vs intravenous 5 mg/kg, read-out: F, absolute oral bioavailability

STRUCTURE STRING	UNITS LABEL	bioavailability
CO[C@H]1C(=O)[C@]2(C)[C@@H](OC(=O)N(C)C)C[C@H]3OC[C@@]3(OC(C)=O)[C@H]2[C@H](OC(=O)c2ccccc2)[C@]2(O)C[C@H](OC(=O)[C@H](O)[C@@H](NC(=O)OC(C)(C)C)c3ccccc3)C(C)=C1C2(C)C	%	10.7

----------
Tested on: HT29 colon cancer
TEST DESCRIPTION: MTT assay, proliferation inhibition
Type: cell-based
TEST CONDITIONS: Homo sapiens, HT-29, read-out: Proliferation inhibition rate
// reported inhibition at 1 µM per item

STRUCTURE STRING	inhibition at 1 µM / %
CO[C@H]1C(=O)[C@]2(C)[C@@H](OC(=O)N(C)C)C[C@H]3OC[C@@]3(OC(C)=O)[C@H]2[C@H](OC(=O)c2ccccc2)[C@]2(O)C[C@H](OC(=O)[C@H](O)[C@@H](NC(=O)OC(C)(C)C)c3ccccn3)C(C)=C1C2(C)C	89.1
CO[C@H]1C[C@H]2OC[C@@]2(OC(C)=O)[C@H]2[C@H](OC(=O)c3ccccc3)[C@]3(O)C[C@H](OC(=O)[C@H](O)[C@@H](NC(=O)OC(C)(C)C)c4ccccc4)C(C)=C([C@@H](OC(=O)N(C)C)C(=O)[C@]12C)C3(C)C	87.9
COC(=O)O[C@H]1C[C@H]2OC[C@@]2(OC(C)=O)[C@H]2[C@H](OC(=O)c3ccccc3)[C@]3(O)C[C@H](OC(=O)[C@H](O)[C@@H](NC(=O)OC(C)(C)C)c4ccccc4)C(C)=C([C@@H](OC)C(=O)[C@]12C)C3(C)C	89.7
COC(=O)O[C@H]1C(=O)[C@]2(C)[C@@H](OC)C[C@H]3OC[C@@]3(OC(C)=O)[C@H]2[C@H](OC(=O)c2ccccc2)[C@]2(O)C[C@H](OC(=O)[C@H](O)[C@@H](NC(=O)OC(C)(C)C)c3ccccc3)C(C)=C1C2(C)C	88.8
CO[C@H]1C(=O)[C@]2(C)CC[C@H]3OC[C@@]3(OC(C)=O)[C@H]2[C@H](OC(=O)c2ccccc2)[C@]2(O)C[C@H](OC(=O)[C@H](O)[C@@H](NC(=O)OC(C)(C)C)c3ccccc3)C(C)=C1C2(C)C	88.3
CO[C@H]1C(=O)[C@]2(C)[C@@H](OC(=O)N(C)C)C[C@H]3OC[C@@]3(OC(C)=O)[C@H]2[C@H](OC(=O)c2ccccc2)[C@]2(O)C[C@H](OC(=O)[C@H](O)[C@H](CC(C)C)NC(=O)OC(C)(C)C)C(C)=C1C2(C)C	89.2

----------
// reported Papp A→B per item
TEST DESCRIPTION: Caco-2 cell monolayer membrane transport assay
TEST CONDITIONS: human, Caco-2, Papp A-B, Caco-2 cell line (21 days); bidirectional transport, Table 5

COMPOUND	UNITS LABEL	Papp A→B
CO[C@H]1C(=O)[C@]2(C)[C@@H](OC(=O)N(C)C)C[C@H]3OC[C@@]3(OC(C)=O)[C@H]2[C@H](OC(=O)c2ccccc2)[C@]2(O)C[C@H](OC(=O)[C@H](O)[C@@H](NC(=O)OC(C)(C)C)c3ccccc3)C(C)=C1C2(C)C [PCMI-31]	×10⁻⁶ cm/s	15
CO[C@H]1C(=O)[C@]2(C)C=C[C@@H](O)[C@](CO)(OC(C)=O)[C@H]2[C@H](OC(=O)c2ccccc2)[C@]2(O)C[C@H](OC(=O)[C@H](O)[C@@H](NC(=O)OC(C)(C)C)c3ccccc3)C(C)=C1C2(C)C [PCMI-44]	×10⁻⁶ cm/s	5.72
CO[C@H]1C(=O)[C@]2(C)CC[C@H]3OC[C@@]3(OC(C)=O)[C@H]2[C@H](OC(=O)c2ccccc2)[C@]2(O)C[C@H](OC(=O)[C@H](O)[C@H](CC(C)C)NC(=O)OC(C)(C)C)C(C)=C1C2(C)C [PCMI-42]	×10⁻⁶ cm/s	7.54
CO[C@H]1C[C@H]2OC[C@@]2(OC(C)=O)[C@H]2[C@H](OC(=O)c3ccccc3)[C@]3(O)C[C@H](OC(=O)[C@H](O)[C@H](CC(C)C)NC(=O)OC(C)(C)C)C(C)=C([C@@H](OC(=O)N(C)C)C(=O)[C@]12C)C3(C)C [PCMI-25]	×10⁻⁶ cm/s	8.25
CCSC(=O)O[C@H]1C[C@H]2OC[C@@]2(OC(C)=O)[C@H]2[C@H](OC(=O)c3ccccc3)[C@]3(O)C[C@H](OC(=O)[C@H](O)[C@@H](NC(=O)N(C)C)c4ccccc4)C(C)=C([C@@H](OC)C(=O)[C@]12C)C3(C)C [PCMI-40]	×10⁻⁶ cm/s	6.92
CO[C@H]1C(=O)[C@]2(C)[C@@H](OC(=O)N(C)C)C[C@H]3OC[C@@]3(OC(C)=O)[C@H]2[C@H](OC(=O)c2ccccc2)[C@]2(O)C[C@H](OC(=O)[C@H](O)[C@H](CC(C)C)NC(=O)OC(C)(C)C)C(C)=C1C2(C)C [PCMI-34]	×10⁻⁶ cm/s	19.4

----------
// reported Papp B-A per item
Tested on: Caco-2 cell monolayer
TEST DESCRIPTION: Caco-2 cell monolayer membrane transport assay
TEST CONDITIONS: Caco-2 cell line (21 days); bidirectional transport, Table 5

MOLECULE	SYSTEM UNDER TEST	Papp B-A
CO[C@H]1C[C@H]2OC[C@@]2(OC(C)=O)[C@H]2[C@H](OC(=O)c3ccccc3)[C@]3(O)C[C@H](OC(=O)[C@H](O)[C@H](CC(C)C)NC(=O)OC(C)(C)C)C(C)=C([C@@H](OC(=O)N(C)C)C(=O)[C@]12C)C3(C)C [PCMI-25]	Caco-2 cell monolayer	32.58 10^−6 cm/s
CO[C@H]1C(=O)[C@]2(C)CC[C@H]3OC[C@@]3(OC(C)=O)[C@H]2[C@H](OC(=O)c2ccccc2)[C@]2(O)C[C@H](OC(=O)[C@H](O)[C@H](CC(C)C)NC(=O)OC(C)(C)C)C(C)=C1C2(C)C [PCMI-42]	Caco-2 cell monolayer	38.57 10^−6 cm/s
CO[C@H]1C[C@H]2OC[C@@]2(OC(C)=O)[C@H]2[C@H](OC(=O)c3ccccc3)[C@]3(O)C[C@H](OC(=O)[C@H](O)[C@@H](NC(=O)OC(C)(C)C)c4ccccc4)C(C)=C([C@@H](OC(=O)N(C)C)C(=O)[C@]12C)C3(C)C [PCMI-22]	Caco-2 cell monolayer	33.11 10^−6 cm/s
COC(=O)O[C@H]1C(=O)[C@]2(C)[C@@H](OC)C[C@H]3OC[C@@]3(OC(C)=O)[C@H]2[C@H](OC(=O)c2ccccc2)[C@]2(O)C[C@H](OC(=O)[C@H](O)[C@H](CC(C)C)NC(=O)OC(C)(C)C)C(C)=C1C2(C)C [PCMI-28]	Caco-2 cell monolayer	33.26 10^−6 cm/s
COC(=O)O[C@H]1C(=O)[C@]2(C)[C@@H](OC)C[C@H]3OC[C@@]3(OC(C)=O)[C@H]2[C@H](OC(=O)c2ccccc2)[C@]2(O)C[C@H](OC(=O)[C@H](O)[C@@H](NC(=O)OC(C)(C)C)c3ccccc3)C(C)=C1C2(C)C [PCMI-26]	Caco-2 cell monolayer	29.18 10^−6 cm/s
COC(=O)O[C@H]1C[C@H]2OC[C@@]2(OC(C)=O)[C@H]2[C@H](OC(=O)c3ccccc3)[C@]3(O)C[C@H](OC(=O)[C@H](O)[C@H](CC(C)C)NC(=O)OC(C)(C)C)C(C)=C([C@@H](OC)C(=O)[C@]12C)C3(C)C [PCMI-39]	Caco-2 cell monolayer	36.37 10^−6 cm/s
